Target: human TLR7 (Homo sapiens)
Construct: expressed in transfected cells; host or cells: HEK293
Sequence (Q9NYK1 27-1049): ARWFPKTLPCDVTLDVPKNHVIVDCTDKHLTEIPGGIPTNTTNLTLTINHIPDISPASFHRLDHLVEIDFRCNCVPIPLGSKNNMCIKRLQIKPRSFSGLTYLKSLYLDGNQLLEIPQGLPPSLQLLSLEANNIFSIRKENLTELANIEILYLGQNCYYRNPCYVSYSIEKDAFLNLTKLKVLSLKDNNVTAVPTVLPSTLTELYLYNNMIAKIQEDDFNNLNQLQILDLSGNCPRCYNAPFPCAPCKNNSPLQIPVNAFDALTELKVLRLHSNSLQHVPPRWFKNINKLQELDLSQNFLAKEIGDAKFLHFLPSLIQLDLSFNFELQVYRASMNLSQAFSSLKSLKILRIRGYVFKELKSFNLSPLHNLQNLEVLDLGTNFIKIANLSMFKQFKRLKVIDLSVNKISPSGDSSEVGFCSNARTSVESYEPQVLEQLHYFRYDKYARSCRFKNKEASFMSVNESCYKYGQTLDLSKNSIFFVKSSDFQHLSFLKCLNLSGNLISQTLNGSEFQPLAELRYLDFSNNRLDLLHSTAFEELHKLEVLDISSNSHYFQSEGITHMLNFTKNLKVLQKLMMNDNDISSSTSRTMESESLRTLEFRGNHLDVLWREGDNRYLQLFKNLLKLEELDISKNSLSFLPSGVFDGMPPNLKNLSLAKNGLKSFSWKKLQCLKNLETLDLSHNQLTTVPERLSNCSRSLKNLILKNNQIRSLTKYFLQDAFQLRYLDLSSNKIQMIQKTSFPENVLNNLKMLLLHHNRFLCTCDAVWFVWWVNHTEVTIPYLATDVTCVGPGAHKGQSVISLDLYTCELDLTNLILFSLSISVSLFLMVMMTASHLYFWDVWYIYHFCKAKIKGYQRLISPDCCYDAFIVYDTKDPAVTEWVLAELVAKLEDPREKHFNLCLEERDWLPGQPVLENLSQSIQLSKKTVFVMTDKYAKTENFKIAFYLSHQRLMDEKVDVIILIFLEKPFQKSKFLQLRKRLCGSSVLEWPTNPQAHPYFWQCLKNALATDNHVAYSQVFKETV
Assay: TLR7 wild type NFκB-luc cellular reporter assay
Type: cell-based
Set-up: unit not given here
Settings: HEK293 NFκB-luc reporter, 6 hours incubation; second part of table
Mark each entry condition met if its TLR7-wt (LEC) sits below 2, and condition not met for all others.

1) CCCC[C@@H](CCO)Nc1nc(N)nc2ccc(F)cc12
condition met
2) CCCCNc1nc(N)nc2cccc(CCc3ccc(OC)cc3)c12
condition not met
3) CCC[C@@H](CO)Nc1nc(N)nc2cc(CO)ccc12
condition met
4) CCC[C@@H](CO)Nc1nc(N)nc2cccc(OC)c12
condition met
5) CCCCNc1nc(N)nc2cccc(CCc3ccccn3)c12
condition met
6) CCCC[C@@H](CO)Nc1nc(N)nc2ccc(C)cc12
condition met
7) CCC[C@@H](CO)Nc1nc(N)nc2ccc(F)cc12
condition not met
8) CCC[C@@H](CO)Nc1nc(N)nc2cc(Cl)ccc12
condition met
9) CCC[C@@H](CCO)Nc1nc(N)nc2ccc(OC)cc12
condition not met

* * *

Molecular target: human TLR8 (Homo sapiens)
Construct: expressed in transfected cells; host or cells: HEK293
Sequence (Q9NR97 27-1041): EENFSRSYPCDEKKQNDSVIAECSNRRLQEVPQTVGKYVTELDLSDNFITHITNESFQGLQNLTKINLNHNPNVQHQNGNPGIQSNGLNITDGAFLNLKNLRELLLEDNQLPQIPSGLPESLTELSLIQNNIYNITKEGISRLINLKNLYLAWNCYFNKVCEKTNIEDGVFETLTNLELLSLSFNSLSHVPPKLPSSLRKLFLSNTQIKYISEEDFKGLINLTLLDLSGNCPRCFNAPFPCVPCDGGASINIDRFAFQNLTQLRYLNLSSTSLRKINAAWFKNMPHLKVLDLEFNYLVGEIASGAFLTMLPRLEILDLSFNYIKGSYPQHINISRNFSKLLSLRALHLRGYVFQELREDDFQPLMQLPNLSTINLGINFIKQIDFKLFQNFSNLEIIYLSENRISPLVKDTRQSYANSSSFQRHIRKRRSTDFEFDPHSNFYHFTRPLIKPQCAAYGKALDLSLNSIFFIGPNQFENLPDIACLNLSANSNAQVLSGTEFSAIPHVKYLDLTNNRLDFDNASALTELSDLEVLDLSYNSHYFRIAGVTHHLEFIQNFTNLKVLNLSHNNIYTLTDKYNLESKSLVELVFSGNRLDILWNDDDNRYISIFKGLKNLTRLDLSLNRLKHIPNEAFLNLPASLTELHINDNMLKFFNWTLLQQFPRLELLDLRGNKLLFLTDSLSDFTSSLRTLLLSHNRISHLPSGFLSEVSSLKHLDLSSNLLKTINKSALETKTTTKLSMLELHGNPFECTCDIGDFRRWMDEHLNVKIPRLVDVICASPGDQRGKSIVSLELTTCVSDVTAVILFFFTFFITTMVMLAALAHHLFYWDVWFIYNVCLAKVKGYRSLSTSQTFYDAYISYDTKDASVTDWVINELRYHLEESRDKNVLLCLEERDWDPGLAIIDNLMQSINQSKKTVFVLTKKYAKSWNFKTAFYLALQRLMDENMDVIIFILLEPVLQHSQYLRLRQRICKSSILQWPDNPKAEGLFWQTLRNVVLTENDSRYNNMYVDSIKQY
Test: TLR8 wild type NFκB-luc cellular reporter assay
Format: cell-based
Set-up: unit not given here
Settings: HEK293 NFκB-luc reporter, 6 hours incubation; second part of table
Output T for records whose TLR8-wt (LEC) is lower than 0.1, F for records at or above 0.1.

1. CCCC[C@@H](CO)Nc1nc(N)nc2cccc(C)c12 [Compound 52]
T
2. CCCCNc1nc(N)nc2cc(C(=O)N(C)C)ccc12 [Compound 94]
F
3. CCCCNc1nc(N)nc2ccc(C(C)=O)cc12 [Compound 22]
F
4. CCCCNc1nc(N)nc2cc(F)c(F)cc12 [Compound 42]
F
5. CCC[C@@H](CCO)Nc1nc(N)nc2cc(OC)ccc12 [Compound 78]
F

* * *

Target: human TLR7 (Homo sapiens, UniProt Q9NYK1)
Construct: expressed in transfected cells; host or cells: HEK293
Experiment: TLR7 wild type NFκB-luc cellular reporter assay
Assay type: cell-based
Parameters: unit not given here
Details: HEK293 NFκB-luc reporter, 6 hours incubation; second part of table
The reader will find reported TLR7-wt (LEC) values listed item by item below.
readout name: TLR7-wt (LEC)

1. CCCCNc1nc(N)nc2cc(OC)ccc12
0.94
2. CCCCNc1nc(N)nc2cccc(C)c12
0.47
3. CCCCNc1nc(N)nc2ccc(OC)cc12
5.64

* * *

Tested on: interferon-stimulated responsive elements (ISRE)
Assay: Activation of ISRE promoter elements by conditioned media from PBMC (HEK-ISREluc)
Type: cell-based, human
Design: unit not given here
Conditions: compound applied to PBMCs, supernatant transferred to HEK-ISREluc cells, 24 hours
Mark y for reported HEK-ISRE luc (LEC) of 0.04 or greater; mark n for anything smaller.

1) CCCC[C@@H](CO)Nc1nc(N)nc2ccc(OC)cc12 [Compound 77]
y
2) CCCC[C@@H](CO)Nc1nc(N)nc2cccc(C)c12 [Compound 52]
n
3) CCC[C@@H](CCO)Nc1nc(N)nc2ccc(CC)cc12 [Compound 25]
y
4) CCCCNc1nc(N)nc2cc(OC)ccc12 [Compound 39]
y
5) CCCC[C@@H](CCO)Nc1nc(N)nc2cc(C)ccc12 [Compound 73]
n
6) CCCCNc1nc(N)nc2cc(CO)ccc12 [Compound 18]
y

* * *

Target: human TLR7 (Homo sapiens, UniProt Q9NYK1)
Construct: expressed in transfected cells; host or cells: HEK293
Assay: TLR7 wild type NFκB-luc cellular reporter assay
Assay type: cell-based
Design: unit not given here
Conditions: HEK293 NFκB-luc reporter, 6 hours incubation; second part of table
Recorded TLR7-wt (LEC) determines the label; the label ranges are low band (below 0.4), middle band (0.4 to below 0.8), high band (0.8 or more)

1. CCC[C@@H](CO)Nc1nc(N)nc2cc(C)ccc12
middle band
2. CCCCNc1nc(N)nc2cccc(OC(C)C)c12
low band
3. CCCC[C@@H](CO)Nc1nc(N)nc2cccc(F)c12
middle band
4. CCCCNc1nc(N)nc2ccc(CCC(C)O)cc12 (stereo not shown)
middle band
5. CCC[C@@H](CO)Nc1nc(N)nc2cccc(-c3ccccc3)c12
high band
6. CCCCNc1nc(N)nc2cccc(Cl)c12
high band
7. CCCCNc1nc(N)nc2cc(C(=O)NCCN(C)C)ccc12
high band
8. CCCCNC(=O)c1cccc2nc(N)nc(NCCCC)c12
middle band
9. CCC[C@@H](CCO)Nc1nc(N)nc2cc(F)ccc12
low band
10. CCCCNc1nc(N)nc2ccc(-c3cnn(C)c3)cc12
high band
11. CCCCNc1nc(N)nc2cc(C(=O)Nc3cccnc3)ccc12
middle band
12. CCCCCNc1nc(N)nc2ccc(Br)cc12
middle band

* * *

Tested on: interferon-stimulated responsive elements (ISRE)
Experiment: Activation of ISRE promoter elements by conditioned media from PBMC (HEK-ISREluc)
Assay type: cell-based, human
Parameters: unit not given here
Conditions: compound applied to PBMCs, supernatant transferred to HEK-ISREluc cells, 24 hours
readout name: HEK-ISRE luc (LEC)

1. CCCCNc1nc(N)nc2ccc(OC)cc12
2.44
2. CCC[C@@H](CO)Nc1nc(N)nc2cc(C)ccc12
0.09
3. CCCC[C@@H](CCO)Nc1nc(N)nc2c(F)cccc12
0.05
4. CCCC[C@@H](CCO)Nc1nc(N)nc2cc(F)ccc12
0.04
5. CCC[C@@H](CCO)Nc1nc(N)nc2cc(C)ccc12
0.02
6. CCC[C@@H](CO)Nc1nc(N)nc2c(Cl)cccc12
0.73
7. CCC[C@@H](CO)Nc1nc(N)nc2ccc(OC)cc12
2.08
8. CCCCNc1nc(N)nc2ccc(CO)cc12
0.14
9. CCC[C@@H](CO)Nc1nc(N)nc2c(C)cccc12
0.59
10. CCC[C@@H](CO)Nc1nc(N)nc2ccc(CO)cc12
0.39
11. CCCC[C@@H](CO)Nc1nc(N)nc2cc(OC)ccc12
0.09
12. CCCC[C@@H](CO)Nc1nc(N)nc2cc(F)ccc12
0.02
13. CCC[C@@H](CO)Nc1nc(N)nc2cc(F)c(F)cc12
0.05
14. CCC[C@@H](CO)Nc1nc(N)nc2cc(Cl)ccc12
0.01
15. CC[C@H](C)[C@@H](CO)Nc1nc(N)nc2c(F)cccc12
0.21
16. CCC[C@@H](CO)Nc1nc(N)nc2ccc(F)cc12
0.13
17. CCC[C@@H](CO)Nc1nc(N)nc2c(F)cccc12
0.05
18. CCCC[C@@H](CO)Nc1nc(N)nc2c(F)cccc12
0.05
19. CCCCNc1nc(N)nc2cccc(CCc3ccccc3)c12
0.27
20. CCCC[C@@H](CO)Nc1nc(N)nc2cccc(F)c12
0.03
21. CCC[C@@H](CCO)Nc1nc(N)nc2ccc(OC)cc12
2.07
22. C#CCOc1cccc2nc(N)nc(NCCCC)c12
0.04
23. CCC[C@@H](CCO)Nc1nc(N)nc2cccc(F)c12
0.06
24. CCC[C@@H](CO)Nc1nc(N)nc2cc(OC)ccc12
0.09
25. CCC[C@@H](CCO)Nc1nc(N)nc2cc(F)ccc12
0.04
26. CCCC[C@@H](CCO)Nc1nc(N)nc2cccc(C)c12
0.02
27. CCC[C@@H](CO)Nc1nc(N)nc2cccc(F)c12
0.01
28. CCCCNc1nc(N)nc2cccc(OCCOC)c12
0.12
29. CCCC[C@@H](CCO)Nc1nc(N)nc2ccc(C)cc12
0.14
30. CCCC[C@@H](CO)Nc1nc(N)nc2ccc(F)cc12
0.12
31. CCC[C@@H](CO)Nc1nc(N)nc2cccc(C)c12
0.07
32. CCC[C@@H](CO)Nc1nc(N)nc2cccc(-c3ccccc3)c12
2.14
